Origin of measurements: the Human Domainome abundance scans (Beltran et al. 2025)

This listing pairs variants with measured abundance fitness.
B1: Calcium-binding protein 2, residues 155 to 219; numbered along this chain, Q9NPB3 (parent)
chain: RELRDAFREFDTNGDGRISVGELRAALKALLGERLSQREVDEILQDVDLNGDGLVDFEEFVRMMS

Variants of: B1
measurementNotes: abundance fitness (aPCA) (normalised: wild type 0, dead -1); higher = more abundant; growth selection in yeast, the domain comes from the species named
measurementConditions: Homo sapiens
Response field accepts a number only; no unit should be typed.

Below, 3 variants whose answers are already recorded.
[[record]]
biopolymersequence = "RELRDAFREFDTNGDGRISVGELRAALKALLGERLSQREVDEILQDVDLAGDGLVDFEEFVRMMS [N50A]"
recordedmeasurement = -0.056

[[record]]
biopolymersequence = "RELRDAFREFDTNGDGRISVGELRAALKALLGERLSQREADEILQDVDLNGDGLVDFEEFVRMMS [V40A]"
recordedmeasurement = 0.006

[[record]]
biopolymersequence = "RELRDAFREFDTNGDGRISVGELRAALKALLGERLSQREVDEILQDVDLNGDGIVDFEEFVRMMS [L54I]"
recordedmeasurement = -0.223


State the recorded abundance fitness for this entry: RELRDAFREFDTNGDGRISVGELRAALKALLYERLSQREVDEILQDVDLNGDGLVDFEEFVRMMS [G32Y]
-0.269

Consider the variant RELRDAFREFDTNGDGRINVGELRAALKALLGERLSQREVDEILQDVDLNGDGLVDFEEFVRMMS [S19N] and give its measured abundance fitness.
0.049

State the recorded abundance fitness for this entry: RELRDAFREFDTNGDGRISVGELRAALKALLGEKLSQREVDEILQDVDLNGDGLVDFEEFVRMMS [R34K]
0.187

I would be grateful if you could share the reported abundance fitness for RELRDAFREFDTNGDGRISVGELRAALKALLGERLSQREVDKILQDVDLNGDGLVDFEEFVRMMS [E42K] .
-0.178
